- System: U2OS
- Assay Text: Multiplex assay against U2OS
- Assay type: toxicity, cell-based
- Run Conditions: human, 12 h, 1 µM, compound concentration 1 uM, replicate 2
Reported Metric: Population Hoechst High Intensity Objects (%)
Quick reminder: number only, in %, skip the unit.

Worked examples follow.
COc1ccc(-c2ccc3c(N4CCOCC4)nc(N4C[C@@H](C)O[C@@H](C)C4)nc3n2)cc1CO : 7
CN(C)C(=O)C(CCN1CCC(O)(c2ccc(Cl)cc2)CC1)(c1ccccc1)c1ccccc1.Cl [LOPERAMIDE HYDROCHLORIDE] : 7
COC(=N)c1nc2ccc3ncnc(Nc4ccc(OC)cc4F)c3c2s1 : 6
CCOc1cc(C(=O)N2CCC(N3CCN(C)CC3)CC2)ccc1Nc1ncc2c(n1)N(C1CCCC1)c1ccccc1C(=O)N2C : 10

Now take the following compound into account.
// Input: CCn1cc(-c2ccnc3[nH]c(-c4cccc(CN(C)C)c4)cc23)c(-c2ccc(NC(=O)N(C)C)cc2)n1 . Output its Population Hoechst High Intensity Objects (%) only. 14

* * *

- System: HEK-293T
- Assay Text: Incucyte cell viability with HEK293T; further: filed as whole numbers so only -1 and 0 and 1 occur
- Type: toxicity, cell-based
- Run Conditions: human, 6 h, 10 µM, compound concentration 10 uM, replicate number 1, timepoint 6 hours
Documented Growth Rate across a set of compounds

Could you please provide reported Growth Rate for CC[C@@H]1CN2C(=O)N(C)c3nc(-c4ccccc4)[nH]c3C2=N1.Cl ? Thanks! 1

Read off the recorded Growth Rate for CN1CCN(C(=O)C(C)(C)c2ccc(C(=O)Nc3cn4cc(-c5cc(C(C)(C)C)cc(C(C)(C)C)c5)ccc4n3)cc2)CC1 0

Identify the reported Growth Rate for the following entry. CNc1cc(Oc2cc(C(=O)Nc3cc(N4CCN(C)CC4)cc(C(F)(F)F)c3)ccc2C)ncn1 0

Provide measured Growth Rate value, entry: C[C@@H](c1cccc(C#N)c1)n1cc(Cl)cc(C(N)=O)c1=N.Cl 1

For the compound COc1cc(OC)cc(-c2noc(N3CCN(C)C4(CCN(c5ccnc(C)c5)CC4)C3)n2)c1 , give its reported Growth Rate. 0

Give Growth Rate for the following compound: COc1ccc(-c2ccc3c(N4CCOCC4)nc(N4C[C@@H](C)O[C@@H](C)C4)nc3n2)cc1CO 0

Report measured Growth Rate; entry is OCCn1cc(-c2cnc3nnn(Cc4ccc5ncccc5c4)c3n2)cn1 0

Hello, please tell me recorded Growth Rate for this one: CCn1c(=O)c(-c2ccc(-c3cncs3)cc2Cl)cc2cnc(Nc3ccc(N4CCN(C)CC4)cc3)nc21 0

* * *

- System: HEK-293T
- Assay Text: Multiplex assay against HEK293T
- Format: toxicity, cell-based
- Run Conditions: human, 48 h, 10 µM, compound concentration 10 uM, replicate 2
Reported Metric: Population Membrane Permeable-Phenotype (%)
Your answer should be a plain number; it is taken to be in %.

State, in one line, measured Population Membrane Permeable-Phenotype (%) of CCc1cccc(CC)c1NC(=O)c1nn(C)c2c1CCc1cnc(Nc3ccc(C(=O)NC4CCN(C)CC4)cc3OC(F)(F)F)nc1-2 6

* * *

- Tested on: HEK-293T
- Assay Text: Incucyte cell viability with HEK293T; further: filed as whole numbers so only -1 and 0 and 1 occur
- Assay type: toxicity, cell-based
- Run Conditions: human, 18 h, 10 µM, compound concentration 10 uM, replicate number 1, timepoint 18 hours
Reported Metric: Growth Rate

S=C(NCCCc1c[nH]cn1)NCCCN(Cc1ccc(Cl)c(Cl)c1)c1ccc(Br)cn1 : 0
O=C1NC(c2ccccn2)Sc2ccccc21 (stereo not drawn) : 0

Annotate the compound CCOc1cc(C(=O)N2CCC(N3CCN(C)CC3)CC2)ccc1Nc1ncc2c(n1)N(C1CCCC1)c1ccccc1C(=O)N2C with its measured Growth Rate. 0

* * *

Listed here: items and their measured Population Apoptotic (%).
- Tested on: HEK-293T
- Assay Text: Multiplex assay against HEK293T
- Format: toxicity, cell-based
- Run Conditions: human, 12 h, 10 µM, compound concentration 10 uM, replicate 2

Example results:
CN(C)C(=O)C(CCN1CCC(O)(c2ccc(Cl)cc2)CC1)(c1ccccc1)c1ccccc1.Cl [LOPERAMIDE HYDROCHLORIDE] : 98%
Cc1cn(-c2cc(NC(=O)c3ccc(C)c(Nc4nccc(-c5cccnc5)n4)c3)cc(C(F)(F)F)c2)cn1 : 38%
CNc1cc(Oc2cc(C(=O)Nc3cc(N4CCN(C)CC4)cc(C(F)(F)F)c3)ccc2C)ncn1 : 98%
CN1CCN(C(=O)C(C)(C)c2ccc(C(=O)Nc3cn4cc(-c5cc(C(C)(C)C)cc(C(C)(C)C)c5)ccc4n3)cc2)CC1 : 23%
COc1ccc(-c2ccc3c(N4CCOCC4)nc(N4C[C@@H](C)O[C@@H](C)C4)nc3n2)cc1CO : 40%
O=C(Nc1ccc(-n2nc(-c3cccnc3)cc2C(F)(F)F)cn1)c1ccc(-c2ccccc2)c(F)c1 : 12%
CCCS(=O)(=O)Nc1ccc(F)c(C(=O)c2c[nH]c3ncc(Cl)cc23)c1F : 11%
C=CCn1c(=O)c2cnc(Nc3ccc(N4CCN(C)CC4)cc3)nc2n1-c1cccc(C(C)(C)O)n1 : 9%

Note: attention shifts to another entry.
Specify measured Population Apoptotic (%) for O=C1NC(=O)C(c2cnc3ccccn23)=C1c1cn2c3c(cc(F)cc13)CN(C(=O)N1CCCCC1)CC2 . 58%

* * *

- System: Fibroblast
- Assay Text: Multiplex assay against human fibroblast
- Assay type: toxicity, cell-based
- Run Conditions: 12 h, 10 µM, compound concentration 10 uM, replicate 1
Collected Population Membrane Permeable-Phenotype (%) values appear next to each entry.
Write the value in % as a bare number.

Guide cases for Population Membrane Permeable-Phenotype (%), answers given:
COc1cc2ncnc(Nc3ccc(F)c(Cl)c3)c2cc1NC(=O)/C=C/CN1CCCCC1 [DACOMITINIB ANHYDROUS] : 7
CN1CCC(=C2c3ccccc3CC(=O)c3sccc32)CC1.O=C(O)/C=C/C(=O)O [KETOTIFEN FUMARATE] : 6
COc1ccc(-c2ccc3c(N4CCOCC4)nc(N4C[C@@H](C)O[C@@H](C)C4)nc3n2)cc1CO : 14
CCc1cccc(CC)c1NC(=O)c1nn(C)c2c1CCc1cnc(Nc3ccc(N4CCN(C)CC4)cc3OC)nc1-2 : 2

Please report the measured Population Membrane Permeable-Phenotype (%) for CNC(=O)c1ccc(Nc2nc(OC3CCCC3)c3c(-c4ccc5nc(C)oc5c4)c[nH]c3n2)c(OC)c1 tested on Fibroblast. 14

Report value: Population Membrane Permeable-Phenotype (%), system: Fibroblast, compound: NC(=O)c1cccc(-c2cc(Nc3ccc(OC(F)(F)F)cc3)ncn2)c1 7

Report Population Membrane Permeable-Phenotype (%) under test system Fibroblast for COCC(=O)NC/C=C/c1ccc2ncnc(Nc3ccc(Oc4ccc(C)nc4)c(C)c3)c2c1 . 14

* * *

- Test system: Fibroblast
- Assay Text: Multiplex assay against human fibroblast
- Assay type: toxicity, cell-based
- Run Conditions: 24 h, 1 µM, compound concentration 1 uM, replicate 2
Reported Metric: Total Cell Count
Respond numerically, and do not add a unit to the figure.

Cc1cc(C)c(S(=O)(=O)N(Cc2ccc(-c3cccc(S(C)(=O)=O)c3)cc2)Cc2ccc(C(F)(F)F)o2)c(C)c1 : 86
Cc1ccc2nc(NCCN)c3ncc(C)n3c2c1.O=C(O)C(F)(F)F.O=C(O)C(F)(F)F : 65
O=C(Nc1ccc(-c2ccnc(Nc3ccc(N4CCOCC4)cc3)n2)cc1)[C@@H]1CCCN1 : 63
COc1ccc(-c2ccc3c(N4CCOCC4)nc(N4C[C@@H](C)O[C@@H](C)C4)nc3n2)cc1CO : 105
CNc1cc(Oc2cc(C(=O)Nc3cc(N4CCN(C)CC4)cc(C(F)(F)F)c3)ccc2C)ncn1 : 58
CCOc1cc2ncc(C#N)c(Nc3ccc(OCc4ccccn4)c(Cl)c3)c2cc1NC(=O)/C=C/CN(C)C : 73
Cl.Oc1ccc2c3c1O[C@H]1c4[nH]c5c(c4C[C@@]4(O)[C@@H](C2)N(CC2CC2)CC[C@]314)C[C@@]1(O)[C@H]2Cc3ccc(O)c4c3[C@@]1(CCN2CC1CC1)[C@H]5O4 : 94
CNC(=O)c1ccc(Nc2nc(OC3CCCC3)c3c(-c4ccc5nc(C)oc5c4)c[nH]c3n2)c(OC)c1 : 92
CN1CCN(C(=O)C(C)(C)c2ccc(C(=O)Nc3cn4cc(-c5cc(C(C)(C)C)cc(C(C)(C)C)c5)ccc4n3)cc2)CC1 : 78
CCOC(=O)c1c(C)[nH]c2ccc3c(c12)CN1CCc2cc(OC)ccc2C1O3 (stereo not given) : 65

// fetch Total Cell Count given entry COC(=N)c1nc2ccc3ncnc(Nc4ccc(OC)cc4F)c3c2s1 55

Tell me its Total Cell Count given O=C1NC(=O)C(c2cnc3ccccn23)=C1c1cn2c3c(cc(F)cc13)CN(C(=O)N1CCCCC1)CC2 as the entry. 82

Specify measured Total Cell Count for O=C(Nc1cccnn1)N1CCC(=Cc2cccc(Oc3ccc(C(F)(F)F)cn3)c2)CC1 . 78

Please indicate Total Cell Count recorded for CCn1c(=O)c(-c2ccc(-c3cncs3)cc2Cl)cc2cnc(Nc3ccc(N4CCN(C)CC4)cc3)nc21 74

Retrieve Total Cell Count measured for COc1cc2ncnc(Nc3ccc(F)c(Cl)c3)c2cc1NC(=O)/C=C/CN1CCCCC1 [DACOMITINIB ANHYDROUS] and print it. 106

Report measured Total Cell Count; entry is S=C(NCCCc1c[nH]cn1)NCCCN(Cc1ccc(Cl)c(Cl)c1)c1ccc(Br)cn1 79

Tell me its Total Cell Count given CCCS(=O)(=O)Nc1ccc(F)c(C(=O)c2c[nH]c3ncc(Cl)cc23)c1F as the entry. 74
